Origin of the recorded values: the supplement of paper PMC8728848

biological target: Fuc(a1-2)[Gal(a1-3)]Gal(b1-3)GlcNAc; assay: glycan array binding signal (z-score within array); higher = stronger binding; details: glycan notation: IUPAC condensed, linker removed
Only a selection was taken, and the strongest signals are over-represented in it overall.
Measurement kind: glycan array binding signal (z-score)
One number for each entry.

Binder	glycan array binding signal (z-score)
AAA (Anguilla anguilla), Q7SIC1 (protein) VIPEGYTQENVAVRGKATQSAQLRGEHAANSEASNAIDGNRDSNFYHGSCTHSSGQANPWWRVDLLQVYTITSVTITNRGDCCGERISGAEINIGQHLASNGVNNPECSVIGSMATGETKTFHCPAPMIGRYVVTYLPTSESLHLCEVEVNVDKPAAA	0.046

Here's the next entry for you.
Ask: What does the data say about its glycan array binding signal (z-score)? Entry: LSL-150 (Laetiporus sulphureus), Q7Z8V1 (protein) MTDIYIPPEGLYFRLLGFASRQVIFARNSPSPDVGLSPVNDQATDQYFSLIYGTGEHAGLYAIKSKATGKVLFSRRPAEPYVGQIDGDGRYPDNWFKIEPGKTYLSKYFRLVQPSTGTALVSRTHLQPYFWNHPQTEVFDDQYFTFLFEDHHHHHH
Result: -0.206
